target_system: human glucagon-like peptide 1 receptor (GLP-1 R) (human, UniProt P43220 24-463)
experiment_notes: cell-based or functional assay
*1 amine or outer side, *2 acyl side, *3 side chain or, on linkers, in order; H or OH if unused. Side-chain parts run from the residue outwards. [ ]: non-standard residue; d: D form. The star is where a group is joined. C20 diacid = O=C(O)CCCCCCCCCCCCCCCCCCC(=O)*; γGlu = O=C(O)[C@H](CCC(=O)[*:2])N[*:1]; AEEA = NCCOCCOCC(=O)O; Aib = CC(C)(N)C(=O)O
Item-by-item account of EC50 GLP-1 (nM); cAMP response
The answer is to be given in nM; state only the numeric part.

Qu. For the binder shown here, H-H[Aib]EGSFTSELATILDK([AEEA-Lys-Glu-Lys-γGlu-C20 diacid])QAARDFIAWLIEHKITD-OH [Compound 57] , give the reported EC50 GLP-1 (nM); cAMP response.
Ans. 0.093
